Overview of recorded fold change for various compounds
Test: viability loss with induced miR-34 in A549 – imaging, A549 dox-inducible miR-34, nuclei and caspase counts, primary screen (AID 1347080); further: test concentration not given here
Conditions: A549 miR-34 inducible, Hoechst nuclei count, 48 h; measured here: relative caspase fold change +Dox/-Dox

# smiles entry, fold change
records = [
    ("NC(=Nc1ccc(F)cc1)NO", 1.07),
    ("CC(C)n1cnc2c(NCCc3ccc(O)cc3)nc(-c3csc4ccccc34)nc21", 0.471),
    ("Cc1ccc(F)c(NC(=O)Nc2ccc(-c3cccc4[nH]nc(N)c34)cc2)c1", 0.989),
    ("CCCCCCCCCCCCCC(=O)OCC", 1.49),
    ("CCCC[C@H](C)C[C@H](O)/C=C/[C@@H]1[C@@H](CCCCCCC(=O)O)[C@@H](O)C[C@H]1O", 1.78),
    ("CC(C)c1ccccc1Cc1cc(C(=O)Nc2ccc(S(=O)(=O)c3ccccc3C(C)(C)C)cc2)c(O)c(O)c1O", 0.84),
    ("CCN(CC)C(=O)CCC/C=C\\C[C@@H]1[C@@H](/C=C/[C@@H](O)CCc2ccccc2)[C@H](O)C[C@@H]1O", 1.45),
    ("Nc1ccccc1NC(=O)c1ccc(CNc2nccc(-c3cccnc3)n2)cc1", 0.733),
    ("O=C(O)CCC/C=C\\C[C@@H]1CO[C@H](C(F)(F)F)O[C@@H]1c1ccccc1O", 0.777),
    ("CSc1nc(NC2CCCC2)c([N+](=O)[O-])c(NC2CCCC2)n1", 1.24),
]
